- Tested on: P388/ADR
- method_summary: Antiproliferative activity against adriamycin resistant P388 cells by ELISA
- Type: functional, cell-based
- details: Mus musculus
pIC50: −log10 of the molar value.
value_type: pIC50

Check out these entries, answers already filled in.
>>> numeric_result("COc1cccc2c1C(=O)c1c(O)c3c(c(O)c1C2=O)C[C@@](O)(C(=O)CO)C[C@@H]3O[C@H]1C[C@H](N)[C@H](O)[C@H](C)O1")
5.76
>>> numeric_result("O=C1c2c(O)ccc(O)c2C(=O)c2c(NCCNCCO)ccc(NCCNCCO)c21")
6.40

I. COc1cccc2c1C(=O)c1c(O)c3c(c(O)c1C2=O)C[C@@](O)(C(C)=O)C[C@@H]3O[C@H]1C[C@H](N)[C@H](O)[C@H](C)O1
II. CC[C@]1(O)C[C@@H]2CN(CCc3c([nH]c4ccccc34)[C@@](C(=O)OC)(c3cc4c(cc3OC)N(C)[C@H]3[C@@](O)(C(=O)OC)[C@H](OC(C)=O)[C@]5(CC)C=CCN6CC[C@]43[C@@H]65)C2)C1
Lookup: Just tell me: smaller pIC50 value, I or II ? Returns: label corresponding to the selected item.
Found: I
(I: 5.68, II: 7.02)
